src = patent US20200109188A1

# Assayed Target: HA of A/Victoria/3/75 (H3N2) virus (influenza A virus, UniProt P03435 17-567)
# Sequence (P03435 17-567 limits assumed): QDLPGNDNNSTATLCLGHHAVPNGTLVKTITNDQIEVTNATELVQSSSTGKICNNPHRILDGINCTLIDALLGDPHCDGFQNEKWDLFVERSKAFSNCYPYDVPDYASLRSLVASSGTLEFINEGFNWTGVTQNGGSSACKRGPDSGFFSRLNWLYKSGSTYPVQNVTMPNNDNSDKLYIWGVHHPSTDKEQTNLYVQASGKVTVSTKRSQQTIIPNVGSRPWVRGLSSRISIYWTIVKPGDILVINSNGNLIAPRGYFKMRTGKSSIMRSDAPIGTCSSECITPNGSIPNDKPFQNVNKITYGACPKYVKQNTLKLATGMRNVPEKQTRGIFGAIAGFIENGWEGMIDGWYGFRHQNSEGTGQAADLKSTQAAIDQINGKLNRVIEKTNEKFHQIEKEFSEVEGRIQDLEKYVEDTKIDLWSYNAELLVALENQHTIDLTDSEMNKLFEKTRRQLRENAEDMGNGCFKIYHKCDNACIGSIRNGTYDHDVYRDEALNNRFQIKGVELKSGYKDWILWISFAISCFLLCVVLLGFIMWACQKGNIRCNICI
# Experimental Protocol: cell-based or functional assay
Metric: Neutralization IC50, H3-Vic75 (µg/mL)
Record the value in µg/mL, omitting the unit from your answer.

Name the recorded Neutralization IC50, H3-Vic75 for Antibody 3 (antibody, V domains shown) VH: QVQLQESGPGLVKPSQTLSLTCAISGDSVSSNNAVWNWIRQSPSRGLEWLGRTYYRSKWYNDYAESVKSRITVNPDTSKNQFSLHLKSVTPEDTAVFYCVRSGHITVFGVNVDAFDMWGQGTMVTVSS VL: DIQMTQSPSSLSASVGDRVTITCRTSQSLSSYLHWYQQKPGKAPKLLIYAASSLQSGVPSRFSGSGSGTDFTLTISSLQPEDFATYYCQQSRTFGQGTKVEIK .
0.75
